# assayName: Anticancer human tumor 997537-175-T-J1-PDC patient-derived colon adenocarcinoma cell line growth inhibition [POLQ]
# cond: 997537-175-T-J1-PDC complex spheroid viability, combination with POLQ inhibitors; second compound 0.316 µM; first compound 0.316 µM; stronger effect = lower value
# Description: Multicellular complex tumor spheroid response to Polymerase (POL) inhibitors (novobiocin, ART-558, RP6685) in combination with a variety of drugs and investigational agents in selected tumor cell lines The POL inhibitors (novobiocin, ART-558, and RP6685) were evaluated both individually and in combination with standard of care and investigational anticancer small molecules within a complex spheroid model of solid tumors. . […]
Doc: threshold 90% (exclusive). Items with viability, T/C beneath it return rule met; others return rule not met.

Query: Does this compound meet the criterion viability, T/C < 90%? CNCc1ccc(-c2[nH]c3cc(F)cc4c3c2CCNC4=O)cc1 + COC1C(OC(N)=O)C(O)C(Oc2ccc3c(O)c(NC(=O)c4ccc(O)c(CC=C(C)C)c4)c(=O)oc3c2C)OC1(C)C
Reply: rule not met

Query: Does O=C(Nc1ccc(O)c(NS(=O)(=O)c2ccc(F)cc2)c1)c1ccc(-c2ccccc2)cc1 + COC1C(OC(N)=O)C(O)C(Oc2ccc3c(O)c(NC(=O)c4ccc(O)c(CC=C(C)C)c4)c(=O)oc3c2C)OC1(C)C have viability, T/C strictly under 90%?
Reply: rule not met

Query: Take the compound Nc1ccn(C2OC(CO)C(O)C2(F)F)c(=O)n1 (stereo not given) + Cc1cccc(N(C)C(=O)C2C(O)CCN2c2nc(C)cc(C(F)(F)F)c2C#N)c1 and say whether its viability, T/C is less than 90%.
Reply: rule met

Query: Given the entry CCc1cc2c(N3CCc4c(cc(Cn5ccnc5)cc4-c4cn(C)nc4C(F)(F)F)C3=O)cc(C)nc2c(OC)n1 + COC1C(OC(N)=O)C(O)C(Oc2ccc3c(O)c(NC(=O)c4ccc(O)c(CC=C(C)C)c4)c(=O)oc3c2C)OC1(C)C , would its reported viability, T/C be below 90%?
Reply: rule not met

---

# assayName: Anticancer human tumor 997537-175-T-J1-PDC cell line growth inhibition [POLQ];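 also: luminescence signal used as a surrogate for viable cells; spheroids exposed to drugs for seven days before readout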
# cond: 997537-175-T-J1-PDC complex spheroid viability, combination with POLQ inhibitors; curve of first compound; second compound 1 µM
measuredEndpoint: IC50

Form: compound = COc1cc(C2c3cc4c(cc3C(OC3OC5COC(C)OC5C(O)C3O)C3COC(=O)C23)OCO4)cc(OC)c1O (centres undefined) + COC1C(OC(N)=O)C(O)C(Oc2ccc3c(O)c(NC(=O)c4ccc(O)c(CC=C(C)C)c4)c(=O)oc3c2C)OC1(C)C ; IC50 = > 10 µM

For reference, reported IC50 for CC(=O)O[C@H]1C(=O)[C@@]2(C)[C@H]([C@H](OC(=O)c3ccccc3)[C@]3(O)C[C@H](OC(=O)[C@H](O)[C@@H](NC(=O)c4ccccc4)c4ccccc4)C(C)=C1C3(C)C)[C@]1(OC(C)=O)CO[C@@H]1C[C@@H]2O + COC1C(OC(N)=O)C(O)C(Oc2ccc3c(O)c(NC(=O)c4ccc(O)c(CC=C(C)C)c4)c(=O)oc3c2C)OC1(C)C stands at 0.0165 µM

The compound listed as CNCc1ccc(-c2[nH]c3cc(F)cc4c3c2CCNC4=O)cc1 + Nc1ccc(C#CCN(C(=O)Cc2ncc(C(F)(F)F)cc2C(F)(F)F)c2ccc(F)cc2)nn1 has a reported IC50 of > 10 µM

Briefly, IC50 measured for COc1ccc([C@@H](O)c2cc(-c3ncnc4cc(N5CCOCC5)ccc34)c(F)cc2Cl)nn1 + COC1C(OC(N)=O)C(O)C(Oc2ccc3c(O)c(NC(=O)c4ccc(O)c(CC=C(C)C)c4)c(=O)oc3c2C)OC1(C)C : > 10 µM

---

For each entry below, report its viability, T/C value.
# assayName: Anticancer human tumor 997537-175-T-J1-PDC cell line growth inhibition [POLQ];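 also: luminescence signal used as a surrogate for viable cells; spheroids exposed to drugs for seven days before readout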
# cond: 997537-175-T-J1-PDC complex spheroid viability, combination with POLQ inhibitors; second compound 0.1 µM; first compound 10 µM; stronger effect = lower value
A number alone suffices; assume %.

Reported viability, T/C ( O=C(c1cc(Cc2n[nH]c(=O)c3ccccc23)ccc1F)N1CCN(C(=O)C2CC2)CC1 + COC1C(OC(N)=O)C(O)C(Oc2ccc3c(O)c(NC(=O)c4ccc(O)c(CC=C(C)C)c4)c(=O)oc3c2C)OC1(C)C ) = 101

Sure, the documented viability, T/C for CNCc1ccc(-c2[nH]c3cc(F)cc4c3c2CCNC4=O)cc1 + Cc1cccc(N(C)C(=O)C2C(O)CCN2c2nc(C)cc(C(F)(F)F)c2C#N)c1 is 121

Record summary for C=CC(=O)N1CCN(c2nc(=O)n(-c3c(C)ccnc3C(C)C)c3nc(-c4c(O)cccc4F)c(F)cc23)C(C)C1 (stereo not given) + Cc1cccc(N(C)C(=O)C2C(O)CCN2c2nc(C)cc(C(F)(F)F)c2C#N)c1 : reported viability, T/C = 94.3

Value of measured viability, T/C for the entry CC1COCCN1c1cc(-c2ccnn2C)c2ccnc(-c3ccn[nH]3)c2n1 (stereo not given) + Cc1cccc(N(C)C(=O)C2C(O)CCN2c2nc(C)cc(C(F)(F)F)c2C#N)c1 : 54.7

viability, T/C reading for C#Cc1c(F)ccc2cc(O)cc(-c3ncc4c(N5CC6CCC(C5)N6)nc(OCC56CCCN5CC(F)C6)nc4c3F)c12 (stereo not given) + Nc1ccc(C#CCN(C(=O)Cc2ncc(C(F)(F)F)cc2C(F)(F)F)c2ccc(F)cc2)nn1 : 96.7

---

# assayName: Anticancer human tumor 997537-175-T-J1-PDC cell line growth inhibition [POLQ]; active = viability on the fitted dose curve at most 10% of control; inactive = the rest;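 also: luminescence signal used as a surrogate for viable cells; spheroids exposed to drugs for seven days before readout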
# cond: 997537-175-T-J1-PDC complex spheroid viability, combination with POLQ inhibitors; second compound 0.316 µM; first compound 1 µM
Entry note: the call must match one of active, inactive

Query: // param item: COc1ccc([C@@H](O)c2cc(-c3ncnc4cc(N5CCOCC5)ccc34)c(F)cc2Cl)nn1 + Cc1cccc(N(C)C(=O)C2C(O)CCN2c2nc(C)cc(C(F)(F)F)c2C#N)c1 ; yields the recorded call
Reply: inactive

Query: So what was the verdict on C=CC(=O)N1CCN(c2nc(=O)n(-c3c(C)ccnc3C(C)C)c3nc(-c4c(O)cccc4F)c(F)cc23)C(C)C1 (stereo unspecified) + Cc1cccc(N(C)C(=O)C2C(O)CCN2c2nc(C)cc(C(F)(F)F)c2C#N)c1 in this test?
Reply: inactive

Query: How was C#Cc1c(F)ccc2cc(O)cc(-c3ncc4c(N5CC6CCC(C5)N6)nc(OCC56CCCN5CC(F)C6)nc4c3F)c12 (stereo unspecified) + Cc1cccc(N(C)C(=O)C2C(O)CCN2c2nc(C)cc(C(F)(F)F)c2C#N)c1 classified in this test?
Reply: inactive

Query: State the result this test recorded for O=C(Nc1ccc(O)c(NS(=O)(=O)c2ccc(F)cc2)c1)c1ccc(-c2ccccc2)cc1 + Nc1ccc(C#CCN(C(=O)Cc2ncc(C(F)(F)F)cc2C(F)(F)F)c2ccc(F)cc2)nn1 .
Reply: inactive

Query: What did this assay record as the result for COc1cc(C2c3cc4c(cc3C(OC3OC5COC(C)OC5C(O)C3O)C3COC(=O)C23)OCO4)cc(OC)c1O (stereo unspecified) + Nc1ccc(C#CCN(C(=O)Cc2ncc(C(F)(F)F)cc2C(F)(F)F)c2ccc(F)cc2)nn1 ?
Reply: inactive

Query: I would be grateful if you could indicate the recorded call for CCc1c2c(nc3ccc(O)cc13)-c1cc3c(c(=O)n1C2)COC(=O)[C@]3(O)CC + Cc1cccc(N(C)C(=O)C2C(O)CCN2c2nc(C)cc(C(F)(F)F)c2C#N)c1 .
Reply: active

Query: For Nc1ccn(C2OC(CO)C(O)C2(F)F)c(=O)n1 (stereo unspecified) + Cc1cccc(N(C)C(=O)C2C(O)CCN2c2nc(C)cc(C(F)(F)F)c2C#N)c1 , what call appears in the results of this test?
Reply: inactive

Query: I'd appreciate the recorded outcome for COc1cc(C2c3cc4c(cc3C(OC3OC5COC(C)OC5C(O)C3O)C3COC(=O)C23)OCO4)cc(OC)c1O (stereo unspecified) + COC1C(OC(N)=O)C(O)C(Oc2ccc3c(O)c(NC(=O)c4ccc(O)c(CC=C(C)C)c4)c(=O)oc3c2C)OC1(C)C from this test.
Reply: inactive

Query: State the result this test recorded for CC(C)n1c(=O)n(C)c2cnc3cc(F)c(-c4ccc(OCCCN5CCCCC5)nc4)cc3c21 + Cc1cccc(N(C)C(=O)C2C(O)CCN2c2nc(C)cc(C(F)(F)F)c2C#N)c1 .
Reply: inactive

Query: Per the records of this test, what outcome belongs to O=c1[nH]cc(F)c(=O)[nH]1 + COC1C(OC(N)=O)C(O)C(Oc2ccc3c(O)c(NC(=O)c4ccc(O)c(CC=C(C)C)c4)c(=O)oc3c2C)OC1(C)C ?
Reply: inactive

Query: Please indicate how the test categorized CC1COCCN1c1cc(C2(S(C)(=N)=O)CC2)nc(-c2ccnc3[nH]ccc23)n1 (stereo unspecified) + Nc1ccc(C#CCN(C(=O)Cc2ncc(C(F)(F)F)cc2C(F)(F)F)c2ccc(F)cc2)nn1 .
Reply: inactive

Query: Please share the test call associated with CC1COCCN1c1cc(C2(O)CC3CCC(C2)O3)c2cnn(-c3ccn[nH]3)c2n1 (stereo unspecified) + Nc1ccc(C#CCN(C(=O)Cc2ncc(C(F)(F)F)cc2C(F)(F)F)c2ccc(F)cc2)nn1 .
Reply: inactive

Query: Field: outcome | Entry: C#Cc1c(F)ccc2cc(O)cc(-c3ncc4c(N5CC6CCC(C5)N6)nc(OCC56CCCN5CC(F)C6)nc4c3F)c12 (stereo unspecified) + Nc1ccc(C#CCN(C(=O)Cc2ncc(C(F)(F)F)cc2C(F)(F)F)c2ccc(F)cc2)nn1
Reply: inactive

Query: // param item: CCc1cc2c(N3CCc4c(cc(Cn5ccnc5)cc4-c4cn(C)nc4C(F)(F)F)C3=O)ccnc2c(OC)n1 + Cc1cccc(N(C)C(=O)C2C(O)CCN2c2nc(C)cc(C(F)(F)F)c2C#N)c1 ; yields the recorded call
Reply: inactive

Query: Per the records of this test, what outcome belongs to CC(C)n1c(=O)n(C)c2cnc3cc(F)c(-c4ccc(OCCCN5CCCCC5)nc4)cc3c21 + COC1C(OC(N)=O)C(O)C(Oc2ccc3c(O)c(NC(=O)c4ccc(O)c(CC=C(C)C)c4)c(=O)oc3c2C)OC1(C)C ?
Reply: inactive

Query: Tell me the recorded outcome of this test for O=C(c1cc(Cc2n[nH]c(=O)c3ccccc23)ccc1F)N1CCN(C(=O)C2CC2)CC1 + Nc1ccc(C#CCN(C(=O)Cc2ncc(C(F)(F)F)cc2C(F)(F)F)c2ccc(F)cc2)nn1 .
Reply: inactive

Query: Dear colleague, could you share the recorded outcome for O=C(c1cc(Cc2n[nH]c(=O)c3ccccc23)ccc1F)N1CCN(C(=O)C2CC2)CC1 + Cc1cccc(N(C)C(=O)C2C(O)CCN2c2nc(C)cc(C(F)(F)F)c2C#N)c1 when you have a moment?
Reply: inactive

Query: What did this assay record as the result for CC1COCCN1c1cc(C2(O)CC3CCC(C2)O3)c2cnn(-c3ccn[nH]3)c2n1 (stereo unspecified) + COC1C(OC(N)=O)C(O)C(Oc2ccc3c(O)c(NC(=O)c4ccc(O)c(CC=C(C)C)c4)c(=O)oc3c2C)OC1(C)C ?
Reply: inactive

Query: In this assay, the call recorded for COc1cccc2c1C(=O)c1c(O)c3c(c(O)c1C2=O)CC(O)(C(=O)CO)CC3OC1CC(N)C(O)C(C)O1 (stereo unspecified) + Nc1ccc(C#CCN(C(=O)Cc2ncc(C(F)(F)F)cc2C(F)(F)F)c2ccc(F)cc2)nn1 was what?
Reply: inactive

Query: Returns: the outcome recorded for COc1cc2cc(C(=O)CCC(=O)O)sc2cc1OC + COC1C(OC(N)=O)C(O)C(Oc2ccc3c(O)c(NC(=O)c4ccc(O)c(CC=C(C)C)c4)c(=O)oc3c2C)OC1(C)C in this assay.
Reply: inactive

Query: Field: outcome | Entry: COc1cc2cc(C(=O)CCC(=O)O)sc2cc1OC + Cc1cccc(N(C)C(=O)C2C(O)CCN2c2nc(C)cc(C(F)(F)F)c2C#N)c1
Reply: inactive
